Collected protein stability index values appear next to each entry.
B1: CSNK1G1 (parent)
chain: GSLPWQGLKADTLKERYQKIGDTK

Variants of: B1
assay-summary: protein stability index of a GFP-peptide fusion (GPS, HEK-293T) (PSI 1-6); higher = more stable;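 also: lentivirally expressed fusions sorted by FACS into six bins by GFP to DsRed ratio, PSI derived from sequencing read proportions per bin multiplied by bin number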
condition-info: c terminus: a fixed tail appended
Reply: number alone, nothing else.

Q: Which protein stability index value is on record for `GSLPIQGLKADTLKERYQKIGDTK` ?
Ans: 3.99

Q: Which protein stability index value is on record for `GSLPWQGLKADTLKERYQAIGDTK` ?
Ans: 3.94

Q: Which protein stability index value is on record for `GSLPWQGLKADTPKERYQKIGDTK` ?
Ans: 4.06

Q: Which protein stability index value is on record for `GSLPWQELKADTLKERYQKIGDTK` ?
Ans: 4.31

Q: Which protein stability index value is on record for `GSLPWQGLKADTQKERYQKIGDTK` ?
Ans: 4.47

Q: Which protein stability index value is on record for `GSLPWQGLKADTLKERYQHIGDTK` ?
Ans: 4.24

These entries and their values trace back to the supplement of paper PMC10567573.
